- tested-on: Ubiquitin carboxyl-terminal hydrolase 30 (Homo sapiens)
- assay-name: inhibitors of ubiquitin-specific protease 30 deubiquitylating enzyme, concentration dependence, in vitro biochemical, validation of primary hits (AID 1645865)
- experimental-setup: purified USP30, Ub-rhodamine cleavage, fluorescence, 2 h
The source made the active and inactive calls.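 Rule for the calls: active = maximal inhibition of the USP30 enzyme reaching 30% or more across the dose series; inactive = the rest.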

{"columns": ["compound", "IC50"],
 "data": [
  ["COc1c2c(cc3cc(O)c4c(=O)cc(C)oc4c13)CCC2=O", "> 50 µM (inactive)"],
  ["O=C(Nc1ccccc1Sc1ncc(-c2ccc(Cl)cc2)cn1)c1ccco1", "4.01 µM"],
  ["CSc1cccc(NC(=O)COc2cccc3ccccc23)c1", "1.46 µM"],
  ["COc1ccccc1CNC(=O)c1c(O)c2cnn(-c3cccc(C)c3)c2[nH]c1=O", "> 50 µM (inactive)"],
  ["CC(C)(C)n1nc(C2CC2)c(Br)c1NC(=O)c1ccccc1F", "34.1 µM"],
  ["O=C(NCc1ccc(Cl)cc1)c1ccc(N2CCCS2(=O)=O)cc1", "> 5 µM (inactive)"],
  ["O=C(COc1ccc2oc3c(c2c1)CCCC3)Nc1ccccn1", "30.6 µM"],
  ["COc1ccc2[nH]c3c(c2c1)CCN1C(=O)N(c2ccccc2C(=O)NCc2ccccc2)C(=O)[C@]31C", "28.5 µM"],
  ["COc1cccc(NC(=O)C2Cn3ccnc3C3(CCN(C(C)=O)CC3)O2)c1 (stereo unspecified)", "> 50 µM (inactive)"],
  ["CCOc1ccc(Nc2cc(C(=O)NCCc3ccccc3)c3ccccc3n2)cc1", "13.6 µM"],
  ["COC(=O)c1ccc(C(=O)Nc2cc3ccccc3cc2NC(=O)c2ccc(C(=O)OC)cc2)cc1", "0.853 µM"]
]}

====

- tested-on: Ubiquitin carboxyl-terminal hydrolase 30 (Homo sapiens) (UniProt Q70CQ3)
- Sequence (Q70CQ3 whole entry, looked up): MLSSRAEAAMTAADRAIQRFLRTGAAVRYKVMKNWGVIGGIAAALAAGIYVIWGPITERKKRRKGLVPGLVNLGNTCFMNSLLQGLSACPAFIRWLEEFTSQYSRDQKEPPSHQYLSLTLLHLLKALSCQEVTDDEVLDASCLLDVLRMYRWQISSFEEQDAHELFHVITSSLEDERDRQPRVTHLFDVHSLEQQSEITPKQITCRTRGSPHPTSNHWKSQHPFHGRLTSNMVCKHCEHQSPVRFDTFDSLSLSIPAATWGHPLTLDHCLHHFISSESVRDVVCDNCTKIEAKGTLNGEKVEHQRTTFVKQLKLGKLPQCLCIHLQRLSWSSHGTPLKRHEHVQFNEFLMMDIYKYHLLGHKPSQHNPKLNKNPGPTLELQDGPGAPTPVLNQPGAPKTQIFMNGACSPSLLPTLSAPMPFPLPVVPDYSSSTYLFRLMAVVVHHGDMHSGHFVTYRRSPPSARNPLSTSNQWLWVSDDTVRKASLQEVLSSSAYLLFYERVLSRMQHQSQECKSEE
- assay-name: inhibitors of ubiquitin-specific protease 30 deubiquitylating enzyme, concentration dependence, in vitro biochemical, validation of primary hits (AID 1645865)
- experimental-setup: purified USP30, Ub-rhodamine cleavage, fluorescence, 2 h
Active and inactive are the calls of the source.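 The calls were made as follows: active = maximal inhibition of the USP30 enzyme reaching 30% or more across the dose series; inactive = the rest.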
Outcome codes: active, inactive

{"columns": ["molecule", "label"],
 "data": [
  ["Cc1ccc(-c2nc(NC(=O)Nc3ccc(Cl)cc3)sc2C)cc1", "active"],
  ["Oc1ccc(-c2nc3ccc(Cl)cn3c2NC2CCCCC2)cc1", "active"],
  ["Cc1nc(-c2ccccc2F)sc1C(=O)Nc1cccnc1", "inactive"],
  ["O=C(c1ccc(N2CCc3ccccc32)nn1)N1CCc2ccccc21", "inactive"],
  ["CN(C)C(=O)CSc1nnc(-c2cccc(Cl)c2)n1-c1ccc(Cl)c(C(F)(F)F)c1", "active"],
  ["Cc1ccc2[nH]c3c(=O)n(CC4CCCO4)cnc3c2c1 (configuration not stated)", "active"],
  ["O=C(NCc1ccc2c(c1)OCO2)c1[nH]nc2c1COc1ccccc1-2", "active"]
]}

====

- tested-on: Ubiquitin carboxyl-terminal hydrolase 30 (Homo sapiens)
- assay-name: inhibitors of ubiquitin-specific protease 30 deubiquitylating enzyme, concentration dependence, in vitro biochemical, validation of primary hits (AID 1645865)
- experimental-setup: purified USP30, Ub-rhodamine cleavage, fluorescence, 2 h
Activity calls are given as the source filed them.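 Rule for the calls: active = maximal inhibition of the USP30 enzyme reaching 30% or more across the dose series; inactive = the rest.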
Possible outcomes: active, inactive

{"columns": ["molecule", "label"],
 "data": [
  ["COc1cc(O)c2c(O)c3c(cc2c1)CC(C)OC3=O (stereo not drawn)", "inactive"],
  ["O=C(CCc1nnc2n(Cc3ccccc3)c(=O)c3ccccc3n12)N1CCN(c2ccccn2)CC1", "active"],
  ["CC1OC2CC(O)C1(O)C1=C2C(=O)c2c(O)c3c(c(O)c2C1=O)[C@H](C)O[C@H]1CC(=O)O[C@@H]31 (stereo partly drawn)", "inactive"]
]}

====

- tested-on: Ubiquitin carboxyl-terminal hydrolase 30 (Homo sapiens)
- assay-name: inhibitors of ubiquitin-specific protease 30 deubiquitylating enzyme, concentration dependence, in vitro biochemical, validation of primary hits (AID 1645865)
- experimental-setup: purified USP30, Ub-rhodamine cleavage, fluorescence, 2 h
Calls of active or inactive are those of the source.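 Rule for the calls: active = maximal inhibition of the USP30 enzyme reaching 30% or more across the dose series; inactive = the rest.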
endpoint: IC50

{"columns": ["molecule", "endpoint", "endpoint-value"],
 "data": [
  ["CCc1nc2cc(NC(=O)c3cccc(N4CCCC4=O)c3)ccc2n1C", "IC50", "> 50 µM (inactive)"],
  ["Cc1ccc(C)c(-n2c(N)c(C(=O)NCCc3ccccc3)c3nc4ccccc4nc32)c1", "IC50", "> 50 µM (inactive)"],
  ["c1coc(CNc2nc(Nc3cccc4ccccc34)nc3ccccc23)c1", "IC50", "> 50 µM (inactive)"],
  ["O=c1[nH]c2ccc(S(=O)(=O)Nc3ccc(O)c4ccccc34)cc2[nH]1", "IC50", "> 50 µM (inactive)"],
  ["CC1CCCCN1CCCNC(=O)c1ccc(N2CCc3ccccc32)s1 (stereo unspecified)", "IC50", "30.9 µM"],
  ["C=C1CCC2[C@](C)(CCC[C@]2(C)C(=O)OC)[C@H]1CCc1ccoc1/C=C/C(=O)O (stereo partly specified)", "IC50", "> 50 µM (inactive)"],
  ["c1ccc(CCN2CCc3nc4cccnc4cc3C2)nc1", "IC50", "> 50 µM (inactive)"],
  ["COc1ccccc1NC(=O)c1cc(-c2ccccn2)nc2ccccc12", "IC50", "16.5 µM"],
  ["COc1ccc(CCNC(=O)[C@H](CCSC)NC(=O)N2CCn3c2nc2ccccc23)cc1OC", "IC50", "44 µM"],
  ["Cc1csc2ncc(C(=O)N3CCN(c4ccccc4F)CC3)c(=O)n12", "IC50", "> 50 µM (inactive)"],
  ["CCc1nnc(NC(=O)c2nnn(-c3ccccc3Cl)c2C)s1", "IC50", "> 50 µM (inactive)"],
  ["COc1ccc2c(c1)c(N1CCCC1=O)c(C(=O)NCc1cccc(OC)c1OC)n2C", "IC50", "> 50 µM (inactive)"],
  ["COCCn1c(=O)[nH]c2cc(C(=O)NCCNc3ccc([N+](=O)[O-])cc3C#N)ccc2c1=O", "IC50", "2.35 µM"],
  ["O=C(Cn1cnc2c(cnn2-c2ccc(Cl)cc2)c1=O)NCc1ccccc1Cl", "IC50", "2.33 µM"],
  ["CN1C(=O)c2cc(NC(=O)c3ccccc3Cl)ccc2Oc2ccccc21", "IC50", "> 50 µM (inactive)"],
  ["CCn1ccc2c(cc(C(=O)Nc3ccccc3F)n2C)c1=O", "IC50", "> 50 µM (inactive)"]
]}

====

- tested-on: Ubiquitin carboxyl-terminal hydrolase 30 (Homo sapiens) (UniProt Q70CQ3)
- assay-name: inhibitors of ubiquitin-specific protease 30 deubiquitylating enzyme, concentration dependence, in vitro biochemical, validation of primary hits (AID 1645865)
- experimental-setup: purified USP30, Ub-rhodamine cleavage, fluorescence, 2 h
Active and inactive are the calls of the source.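 How the source made its calls: active means maximal inhibition of the USP30 enzyme reaching 30% or more across the dose series; inactive means the rest.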

{"columns": ["molecule", "tested-on", "IC50"],
 "data": [
  ["CCOc1ccccc1NC(=O)COc1cc(OC)ccc1C(=O)c1ccccc1", "Ubiquitin carboxyl-terminal hydrolase 30 (Homo sapiens) (UniProt Q70CQ3)", "> 50 µM (inactive)"],
  ["CC(C)CC1NC(=O)C2CCCN2C1=O (stereo not given)", "Ubiquitin carboxyl-terminal hydrolase 30 (Homo sapiens) (UniProt Q70CQ3)", "> 50 µM (inactive)"],
  ["CCOc1ccc(CCNC(=O)c2cccc3c2C(=O)N(CCOC)C3)cc1OCC", "Ubiquitin carboxyl-terminal hydrolase 30 (Homo sapiens) (UniProt Q70CQ3)", "> 50 µM (inactive)"],
  ["O=c1c2c(ccn1Cc1cc(F)ccc1F)ccn2Cc1cccnc1", "Ubiquitin carboxyl-terminal hydrolase 30 (Homo sapiens) (UniProt Q70CQ3)", "> 50 µM (inactive)"],
  ["COC(=O)c1sccc1NC(=O)COc1ccsc1C(=O)OC", "Ubiquitin carboxyl-terminal hydrolase 30 (Homo sapiens) (UniProt Q70CQ3)", "27.9 µM"],
  ["COc1cccc(N2CCN(C(=O)CCNS(=O)(=O)c3ccc4c(c3)CCC(=O)N4)CC2)c1", "Ubiquitin carboxyl-terminal hydrolase 30 (Homo sapiens) (UniProt Q70CQ3)", "> 50 µM (inactive)"],
  ["CC[C@H](C)C[C@H]1CC[C@](O)([C@](C)(O)C(=O)N[C@@H]2C(=O)N3NCCC[C@@H]3C(=O)N(O)[C@@H](C)C(=O)NCC(=O)N3NCCC[C@H]3C(=O)N(O)[C@H](C)C(=O)O[C@H]2C(C)C)O[C@@H]1C", "Ubiquitin carboxyl-terminal hydrolase 30 (Homo sapiens) (UniProt Q70CQ3)", "2.09 µM"],
  ["Cc1ccccc1OCCSc1nc2ccccc2n1CC(=O)NC1CC1", "Ubiquitin carboxyl-terminal hydrolase 30 (Homo sapiens) (UniProt Q70CQ3)", "15.5 µM"],
  ["Nc1c(C(=O)NCCc2ccccc2)nnn1-c1ccc(F)cc1", "Ubiquitin carboxyl-terminal hydrolase 30 (Homo sapiens) (UniProt Q70CQ3)", "31.2 µM"],
  ["CC(=O)Nc1ccc(NC(=O)c2cc(-c3cc(C)cc(C)c3O)n[nH]2)cc1", "Ubiquitin carboxyl-terminal hydrolase 30 (Homo sapiens) (UniProt Q70CQ3)", "12 µM"],
  ["CC1=C[C@@H](C)CC[C@H]2O[C@@H](C3=C(O)C(=O)C(C)=C4O[C@](O)(C=C43)[C@@H](C)C[C@H](C)C1)[C@H](C)[C@@H](O)[C@H]2C", "Ubiquitin carboxyl-terminal hydrolase 30 (Homo sapiens) (UniProt Q70CQ3)", "22.2 µM"],
  ["O=C(Nc1ccc(Cl)cc1)Nc1cccn2ncnc12", "Ubiquitin carboxyl-terminal hydrolase 30 (Homo sapiens) (UniProt Q70CQ3)", "18.7 µM"],
  ["CC1(C)Cc2c(sc3nc(Cc4ccccc4)nc(SCC(=O)Nc4ccccc4)c23)CO1", "Ubiquitin carboxyl-terminal hydrolase 30 (Homo sapiens) (UniProt Q70CQ3)", "1.82 µM"],
  ["COc1cccc(CNC(=O)c2ccc3c(c2)NC(=O)C2CCCN32)c1OC (stereo not given)", "Ubiquitin carboxyl-terminal hydrolase 30 (Homo sapiens) (UniProt Q70CQ3)", "> 50 µM (inactive)"],
  ["COc1ccc(S(=O)(=O)N(C)Cc2cccs2)cc1OC", "Ubiquitin carboxyl-terminal hydrolase 30 (Homo sapiens) (UniProt Q70CQ3)", "> 50 µM (inactive)"],
  ["COc1ccc2nc(NC(=O)C(CC(C)C)NS(=O)(=O)c3ccc4c(c3)CCN4C(C)=O)sc2c1 (stereo not given)", "Ubiquitin carboxyl-terminal hydrolase 30 (Homo sapiens) (UniProt Q70CQ3)", "31.1 µM"],
  ["O=C(CCc1ccccc1)N(CC1CCCO1)c1nc2ccccc2s1 (stereo not given)", "Ubiquitin carboxyl-terminal hydrolase 30 (Homo sapiens) (UniProt Q70CQ3)", "37.3 µM"],
  ["NS(=O)(=O)c1cc(C(=O)OCC(=O)c2ccc3c(c2)OCCO3)ccc1Cl", "Ubiquitin carboxyl-terminal hydrolase 30 (Homo sapiens) (UniProt Q70CQ3)", "> 50 µM (inactive)"],
  ["O=C(COc1ccc2ccccc2c1)Nc1cccc2ccccc12", "Ubiquitin carboxyl-terminal hydrolase 30 (Homo sapiens) (UniProt Q70CQ3)", "21 µM"],
  ["CC(=O)Nc1cc2cc(-n3cccc3)ccc2oc1=O", "Ubiquitin carboxyl-terminal hydrolase 30 (Homo sapiens) (UniProt Q70CQ3)", "> 50 µM (inactive)"]
]}
